B1: DVL3 (parent)
chain: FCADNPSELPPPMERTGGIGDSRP

Variants of: B1
Assay: protein stability index of a GFP-peptide fusion (GPS, HEK-293T) (PSI 1-6); higher = more stable;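 further: lentivirally expressed fusions sorted by FACS into six bins by GFP to DsRed ratio, PSI derived from sequencing read proportions per bin multiplied by bin number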
Conditions: c terminus: a fixed tail appended

[
  {
    "sequence_content": "FCADNPSELPPCMERTGGIGDSRP [P12C]",
    "protein stability index": 4.07
  },
  {
    "sequence_content": "FCADNPSELPPPMERTIGIGDSRP [G17I]",
    "protein stability index": 4.09
  },
  {
    "sequence_content": "FCADNSSELPPPMERTGGIGDSRP [P6S]",
    "protein stability index": 3.95
  },
  {
    "sequence_content": "FCADNPSELPRPMERTGGIGDSRP [P11R]",
    "protein stability index": 3.91
  },
  {
    "sequence_content": "FCADNPSELPPPMERTGGIGDGRP [S22G]",
    "protein stability index": 4
  },
  {
    "sequence_content": "FCADNPSELPPPMERTGVIGDSRP [G18V]",
    "protein stability index": 4
  },
  {
    "sequence_content": "FCADNPSELPPPMERTGGIGYSRP [D21Y]",
    "protein stability index": 3.92
  }
]
